Taken from paper PMC10096129.

Tested on: P. falciparum 3D7
method.description: Antimalarial assay against P. falciparum 3D7 (48 h growth, DNA fluorescent dye)
Assay type: cell-based, Plasmodium falciparum
experimental.setup: Plasmodium falciparum; Table 3, blood-stage P. falciparum 3D7, various amine side chains; read-out: IC50 (µM) 3D7 ± SD
assay.metric: IC50 (µM)

// worked examples, IC50 included
CC(C)[C@@H](C(=O)Nc1ccc(Cl)c(Cl)c1)n1c(=O)[nH]c2ccccc2c1=O: 0.406
CC(C)[C@@H](C(=O)Nc1ccncc1)n1c(=O)[nH]c2ccccc2c1=O: 1.41
CC(C)[C@@H](C(=O)Nc1ccc(F)cc1)n1c(=O)[nH]c2ccccc2c1=O: 0.36
CC(C)[C@@H](C(=O)Nc1ccccc1)n1c(=O)[nH]c2ccccc2c1=O: 0.607
CC(C)[C@@H](C(=O)Nc1ccc(F)c(Cl)c1)n1c(=O)[nH]c2ccccc2c1=O: 0.059

(a) CC(C)[C@@H](C(=O)Nc1ccc(Cl)cc1)n1c(=O)[nH]c2ccccc2c1=O
(b) CC(C)[C@@H](C(=O)Nc1ccc(F)c(F)c1)n1c(=O)[nH]c2ccccc2c1=O
Recorded IC50 values differ for a and b ; which one is higher? Indicate your choice by writing its label.
a
(a: 0.711 µM, b: 0.038 µM)

----------
System: P. falciparum 3D7
method.description: Antimalarial assay against P. falciparum 3D7 (48 h growth, DNA fluorescent dye)
Assay type: cell-based, Plasmodium falciparum
experimental.setup: Plasmodium falciparum; Table 3, blood-stage P. falciparum 3D7, various amine side chains; read-out: IC50 (µM) 3D7 ± SD
assay.metric: IC50 (µM)

(1) CC(C)[C@@H](C(=O)Nc1cccc(F)c1)n1c(=O)[nH]c2ccccc2c1=O
(2) CC(C)[C@@H](C(=O)Nc1cccc(Cl)c1)n1c(=O)[nH]c2ccccc2c1=O
(3) CC(C)[C@@H](C(=O)Nc1cccnc1)n1c(=O)[nH]c2ccccc2c1=O
Reorder the list above by recorded IC50 in ascending order. Please list the labels according to the requested order.
2, 1, 3
(2: 0.022 µM, 1: 0.036 µM, 3: 2.89 µM)
